So I've got a bunch of molecules here, and I need their %Inh values.
# Tested on: PRKD1
# assay.setup: concentration: 1 μM, replicates: in singlicate; n = 1;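 further: KINOMEscan kinase panel screen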
Please state the figure in %; there is no need to write the unit.

Input: Respond only with %Inh recorded for COc1ccc(-c2coc3ccc(-c4nnc(SCc5cccc(C#N)c5)o4)cc23)cc1
Output: 0

Input: Let me know recorded %Inh for CCC(=O)c1c(-c2ccccc2)c2cc(Cl)ccc2c(=O)n1Cc1cc(S(C)(=O)=O)n(CCC(C)(C)O)n1 , thanks.
Output: 1

Input: Give the reported value of %Inh for this record: COc1ccc(-c2cc3c(C)nc(N)nc3n([C@H]3CC[C@H](O)CC3)c2=O)cn1
Output: 3

Input: Name the recorded %Inh of the item Cn1c(=O)c(F)c(Nc2ccc(I)cc2F)c2c(=O)n(OC[C@H](O)CO)cnc21 in your answer.
Output: 0

Input: Indicate its recorded %Inh; the molecule in question is O=C(Nc1n[nH]c2nc(-c3ccccc3)c(Cl)cc12)C1CC1
Output: 0

Input: Supply %Inh value. Item: Cc1ccc(-c2ccc3c(ccc4sc5c(c43)NC[C@@H](C)N=C5N(C)C)n2)cn1
Output: 10

Input: Specify %Inh for COc1cccc(-n2cnc3c(N)ncnc32)c1 and stop.
Output: 0

====

# Tested on: AAK1
# assay.setup: concentration: 1 μM, replicates: in singlicate; n = 1
Kindly supply the reported %Inh values for the records listed here.
Quick reminder: number only, in %, skip the unit.

Input: Recall and state the measured %Inh for COc1ccc(-c2coc3ccc(-c4nnc(SCc5cccc(C#N)c5)o4)cc23)cc1 .
Output: 0

Input: Recall and state the measured %Inh for CCS(=O)(=O)c1ccc(OC)c(Nc2ncc(-c3ccc(F)cc3)o2)c1.Cl [GW591947] .
Output: 4

Input: Specify reported %Inh for the compound shown: CCCNC(=O)Nc1ccc(Oc2ncnc3ccn(C)c23)cc1
Output: 13

Input: For COc1cc2ncn(-c3cc(OCc4ccncc4Br)c(C(N)=O)s3)c2cc1OC [GW854278] , write its %Inh.
Output: 17

Input: Input CC(C)(C)c1ccc(C(=O)Nc2cn3cc(-c4ccccc4)ccc3n2)cc1 , output reported %Inh.
Output: 0

Input: Answer with the recorded %Inh of CCC(=O)c1c(-c2ccccc2)c2cc(Cl)ccc2c(=O)n1Cc1cc(S(C)(=O)=O)n(CC(N)=O)n1 only.
Output: 0

Input: Please report the measured %Inh for Nc1nc(-c2ccccc2F)c(-c2ccnc3ccccc23)s1 [GW560459]
Output: 12

Input: Return value of %Inh for input O=C1NC(=O)C(c2ccccc2)=C1Nc1cccc(O)c1 [SB-390534] , no commentary.
Output: 0

Input: Please report the measured %Inh for Cc1nnc(-c2ccc(C)c(-c3ccc(C(=O)O)cc3)c2)o1 [GW608005]
Output: 0

Input: Give a short answer stating reported %Inh for Cc1cccc(-c2cc(-c3c[nH]nc3-c3ccccn3)ccn2)c1 [GW679395] .
Output: 14

Input: Give %Inh for the following compound: Cc1cc(Nc2nc(-c3cccc(C)n3)nc3ccccc23)ccn1 [GW872411]
Output: 0

Input: Fill in reported %Inh for this entry: CCC(=O)c1c(-c2ccccc2)c2cc(Cl)ccc2c(=O)n1Cc1cc(C(=O)NC2CC2)n(C)n1
Output: 20

Input: State, in one line, measured %Inh of COc1cccc(-n2cnc3c(N)ncnc32)c1 [SKF-97416]
Output: 0
